For each record, write down the corresponding melting point.
Numeric only. Scale: °C

Query :: Reported melting point for `CN(C)C(N)=O` : what is it?
Result :: 184

Query :: Reported melting point for `Brc1ccccc1-c1ccccc1` : what is it?
Result :: 1.5

Query :: Reported melting point for `ClC(Cl)(Cl)CC(Cl)(Cl)Cl` : what is it?
Result :: -27

Query :: Reported melting point for `O=Cc1ccc(Br)cc1` : what is it?
Result :: 67

###

For each record, write down the corresponding melting point.
Numeric only. Scale: °C

Query :: Reported melting point for `O=C1NCNC1(c1ccccc1)c1ccccc1` : what is it?
Result :: 183

Query :: Reported melting point for `O=C(O)c1ccc(C(=O)O)o1` : what is it?
Result :: 342

Query :: Reported melting point for `O=C(Cc1ccccc1)OCCc1ccccc1` : what is it?
Result :: 26.5

Query :: Reported melting point for Cc1ccc(C(=O)C(C)CN2CCCCC2)cc1 (stereo unspecified) : what is it?
Result :: 176

Query :: Reported melting point for `CN(C)[C@@H]1C(O)=C(C(N)=O)C(=O)[C@@]2(O)C(O)=C3C(=O)c4c(O)ccc(Cl)c4[C@@](C)(O)[C@H]3C[C@@H]12` : what is it?
Result :: 168

Query :: Reported melting point for `CCCCCCCCCCCCCCCCCC(=O)OCCOCCOCCOCCO` : what is it?
Result :: 40
